The origin of these recorded values is paper PMC7326275.

Tested on: nine different influenza viruses
Assay: animal or person
Format: in vivo
Conditions: Mustela putorius, read-out: IC50 corresponding to a 50% reduction in OST efficacy against viral shedding; estimated from non-linear regression model, ferrets
REPORTED_ENDPOINT: pIC50
Reminder that pIC50 is minus the log10 of a molar concentration.

Could you share what pIC50 was measured for CCOC(=O)C1=C[C@@H](OC(CC)CC)[C@H](NC(C)=O)[C@@H](N)C1 [OST, oseltamivir] , tested on nine different influenza viruses? 7.84
